- Test system: SNB-75 CNS
- test_name: NCI tumour cell line growth inhibition, 48 h
readout: GI50

molecule	GI50
OC(CNc1ccnc2cc(Cl)ccc12)CNC1CCCCC1 (configuration not stated)	2100 nM
C[CH2][Sn]([CH2]C)([O]C(=O)c1cccc(F)c1)[O][Sn]([CH2]C)([CH2]C)[O]C(=O)c1cccc(F)c1	16900 nM
OCCNCCNc1c2ccccc2nc2oc3ccccc3c12	13200 nM
CC1=C(C(=O)Nc2ccc(F)c(Cl)c2)C(c2cccc(Oc3ccccc3)c2)NC(=O)N1 (configuration not stated)	7530 nM
O=C(/C=C/c1ccc(C(F)(F)F)cc1)c1ccc(Nc2nc(NCCO)nc(N3CCOCC3)n2)cc1	1840 nM
C=CC(=O)Nc1cccc(C)c1Nc1ncc2cc(-c3c(Cl)c(OC)cc(OC)c3Cl)ccc2n1	2570 nM

As a next step, examine the molecule that follows.
Asked: Requested read-out GI50, target or system SNB-75 CNS, entry `COCCNC(=O)c1ccc(-c2nc3ccc4[nH]ncc4c3c3c2CCCC3)cc1`
Given back: 2010 nM
